Just for reference, PubChem BioAssay (NCATS) is where these values come from.

- Target system: DNA repair nuclease/redox regulator APEX1 (Homo sapiens) (UniProt P27695)
- Sequence (P27695 whole entry, looked up): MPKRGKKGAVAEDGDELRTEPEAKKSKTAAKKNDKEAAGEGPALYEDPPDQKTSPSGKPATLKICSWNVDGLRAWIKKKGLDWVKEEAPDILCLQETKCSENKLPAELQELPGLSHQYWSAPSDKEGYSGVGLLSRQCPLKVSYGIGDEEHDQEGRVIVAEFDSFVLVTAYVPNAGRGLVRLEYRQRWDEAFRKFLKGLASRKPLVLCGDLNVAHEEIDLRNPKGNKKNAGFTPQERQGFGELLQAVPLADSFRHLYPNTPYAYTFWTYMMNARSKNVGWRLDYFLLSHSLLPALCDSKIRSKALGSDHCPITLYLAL
- Protocol description: qHTS Validation Assay for Inhibitors of the Human Apurinic/apyrimidinic Endonuclease 1 (APE1) (AID 1705; also: potency is read from the fitted curve at half-maximal effect)
- Details: purified APE1 endonuclease activity, fluorescence, titration; series mostly up to 57.1 µM
Records with an inconclusive call do not appear. Active and inactive are the calls of the source. Calls follow the shape of the dose curve; as a rule, active = well fitted inhibition curve with a large enough effect; inconclusive = small, poorly fitted or top-dose-only effect; inactive = flat fitted curve, though single readings scatter.
Quantity measured: Potency

The following compounds have reported results that may help.
| Compound | Target system | Result |
| --- | --- | --- |
| NC1CCN(c2cccc(Cl)n2)CC1 | DNA repair nuclease/redox regulator APEX1 (Homo sapiens) (UniProt P27695) | inactive |
| CCCn1cnc2c1c(=O)n(CCCCC(C)=O)c(=O)n2C | DNA repair nuclease/redox regulator APEX1 (Homo sapiens) (UniProt P27695) | inactive |
| COC(=O)C1=C(C)NC(C)=C(C(=O)OC)C1c1ccccc1[N+](=O)[O-] | DNA repair nuclease/redox regulator APEX1 (Homo sapiens) (UniProt P27695) | inactive |
| CCN(CC)CCCC(C)Nc1c2ccc(Cl)cc2nc2ccc(OC)cc12 (centres undefined) | DNA repair nuclease/redox regulator APEX1 (Homo sapiens) (UniProt P27695) | 15.8 µM (active) |
| CN(C)CCC=C1c2ccccc2CCc2ccccc21 | DNA repair nuclease/redox regulator APEX1 (Homo sapiens) (UniProt P27695) | inactive |
| CC1=C(CC(=O)O)c2cc(F)ccc2/C1=C\c1ccc(S(C)=O)cc1 (centres undefined) | DNA repair nuclease/redox regulator APEX1 (Homo sapiens) (UniProt P27695) | inactive |
| CC(C(O)c1ccc(O)cc1)N1CCC(Cc2ccccc2)CC1 (centres undefined) | DNA repair nuclease/redox regulator APEX1 (Homo sapiens) (UniProt P27695) | inactive |
| C[C@]12CC[C@@H]3c4ccc(O)cc4CC[C@H]3[C@@H]1CCC2=O | DNA repair nuclease/redox regulator APEX1 (Homo sapiens) (UniProt P27695) | inactive |

Working through the 5 compounds below one at a time, give Potency for each.
1. CC(CN(C)C)CN1c2ccccc2CCc2ccccc21 (centres undefined)
2. C=Cc1c(C)c2cc3[nH]c(cc4nc(cc5nc(cc1[nH]2)C(C)=C5CCC(=O)O)C(CCC(=O)O)=C4C)c(C)c3C=C
3. CC(CN1c2ccccc2Sc2ccccc21)N(C)C (centres undefined)
4. CC(C)NC[C@H](O)c1ccc(O)c(O)c1
5. C[C@](N)(Cc1ccc(O)cc1)C(=O)O

## Output
1. inactive
2. 5.01 µM (active)
3. inactive
4. inactive
5. inactive

Working through the 7 compounds below one at a time, give Potency for each.
1. CN(C)CC[C@@H](c1ccc(Cl)cc1)c1ccccn1
2. CCN(CC)CCNC(=O)c1cc(Cl)c(N)cc1OC
3. CN(C)CCCN1c2ccccc2CCc2ccccc21
4. CSc1ccc2c(c1)C(N1CCN(C)CC1)Cc1ccccc1S2 (centres undefined)
5. CC1=C(CC(=O)O)c2cc(F)ccc2/C1=C\c1ccc(S(C)(=O)=O)cc1
6. OCc1cc(C(O)CNCCCCCCOCCCCc2ccccc2)ccc1O (centres undefined)
7. CN(C)CCOC(C)(c1ccccc1)c1ccccn1 (centres undefined)

## Output
["inactive", "inactive", "inactive", "inactive", "inactive", "inactive", "inactive"]

---

- Tested on: HB3
- Protocol description: qHTS profiling for inhibitors of Plasmodium falciparum proliferation (AID 504749);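 also: 0% = DMSO vehicle and full inhibition = artemisinin control; nearly all actives have a fitted effect of over 60% in size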
- Details: P. falciparum in erythrocytes, SYBR Green DNA, 72 h; series mostly up to 28.7 µM
Records with an inconclusive call do not appear. Active and inactive are the calls of the source. The call rests on the fitted dose curve; in most records, active means well fitted inhibition curve with a large enough effect; inconclusive means small, poorly fitted or top-dose-only effect; inactive means flat fitted curve, though single readings scatter.
Select the matching outcome among yes for active, no for inactive

| Molecule | Assigned label |
| --- | --- |
| [O-][n+]1cccc(CO)c1 | no |
| O=C(Oc1ccccc1C(=O)O)c1ccccc1O | no |
| NCC(=O)CCC(=O)O | no |
| Cn1c(=O)c2c(ncn2CC2OCCO2)n(C)c1=O | no |
| CC(=O)NC(Cc1ccccc1)C(=O)O (centres undefined) | no |

## Input Assay result, entry "CCOC(=O)c1ccc(O)cc1" — outcome?
## Output no

## Input Assay result, entry "O=C(O)c1ccccn1" — outcome?
## Output no

## Input Assay result, entry "NCCNCCNCCNCCN" — outcome?
## Output no

## Input Assay result, entry "O=c1[nH]c(=O)c2[nH]c(=O)[nH]c2[nH]1" — outcome?
## Output no

## Input Assay result, entry "O=S(=O)(O)c1cc(I)c(O)c2ncccc12" — outcome?
## Output no

## Input Assay result, entry "CC(C)(C)C(=O)NCCCC(=O)O" — outcome?
## Output no

---

- Protocol description: Drug repurposing screens with cells derived from glioblastoma tumor samples (AID 1345199); also: % is scaled to controls: 0 for no effect and ±100 for the full control effect; nearly all actives have a fitted effect of over 40% in size
- Details: GBM patient neurospheres viability, ATP luminescence, 48 h; at 46.1 µM (top of the series); tumour line C
Inconclusive results are not listed. Active and inactive are the calls of the source. Calls come from the whole dose curve; as a rule, active = well fitted inhibition curve with a large enough effect; inconclusive = small, poorly fitted or top-dose-only effect; inactive = flat fitted curve, though single readings scatter.
Answer each item with its documented activity, negative = cell killing.

The following molecules have reported results that may help.
| Molecule | activity, negative = cell killing |
| --- | --- |
| O=c1cc[nH]c(=S)[nH]1 | -27.1% (inactive) |
| OCC(O)CN1CCN(c2ccccc2)CC1 (configuration not stated) | -25.1% (inactive) |
| O=C1NC(=O)[C@@]2(CCOc3ccc(F)cc32)N1 | -0.68% (inactive) |
| C[C@@H]1CN(c2c(F)c(F)c3c(=O)c(C(=O)O)cn(C4CC4)c3c2F)C[C@H](C)N1 | 26.5% (inactive) |
| O=c1cc[nH]c(=O)[nH]1 | -13% (inactive) |
| Nc1ncnc2c1ncn2[C@@H]1O[C@H](CO)[C@@H](O)[C@H]1O | -3.63% (inactive) |

activity, negative = cell killing reported for this molecule "[O-][n+]1cccc(CO)c1" : -13.8% (inactive)

---

- Protocol description: qHTS of pediatric cancer cell lines to identify multiple opportunities for drug repurposing: Primary screen for NB-EBc1 cells (AID 1347095);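 also: plate controls were DMSO neutral control for no effect and bortezomib for full effect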
- Details: NB-EBc1 neuroblastoma viability, CellTiter-Glo luminescence, 48 h; series mostly up to 46 µM
Records with an inconclusive call do not appear. Calls of active or inactive are those of the source. The call rests on the fitted dose curve; in most records, active means well fitted cell-killing curve with a large enough effect; inconclusive means small, poorly fitted or top-dose-only effect; inactive means no such curve, though single readings can be large or run the other way.
Quantity measured: activity change, negative = cytotoxic

The following compounds have reported results that may help.
| Compound | activity change, negative = cytotoxic |
| --- | --- |
| COc1ccccc1O | inactive |
| CN(C)CCCN1c2ccccc2CCc2ccccc21 | inactive |
| O=C(O)COc1nn(Cc2ccccc2)c2ccccc12 | inactive |
| C[C@H](N)[C@H](O)c1cccc(O)c1 | inactive |
| NC(=O)c1ncn([C@@H]2O[C@H](CO)[C@@H](O)[C@H]2O)c1N | inactive |
| CC(C)C(=O)c1c(C(C)C)nn2ccccc12 | inactive |
| CCCCC(CC)COC(=O)c1ccccc1O (stereo not drawn) | inactive |
| CC(C)(C)C(=O)C(Oc1ccc(Cl)cc1)n1ccnc1 (stereo not drawn) | inactive |
| CN1[C@@H]2CC[C@H]1CC(OC(=O)C(O)c1ccccc1)C2 (stereo partly drawn) | inactive |
| Cc1ncc([N+](=O)[O-])n1CC(O)CCl (stereo not drawn) | inactive |

Working through the 3 compounds below one at a time, give activity change, negative = cytotoxic for each.
1. C[C@](N)(Cc1ccc(O)cc1)C(=O)O
2. N[C@@H](CSCCCO)C(=O)O
3. CC1=C(/C=C/C(C)=C/C=C/C(C)=C/C(=O)O)C(C)(C)CCC1

## Output
1. 16.2% [at 4.84 µM] (inactive)
2. inactive
3. inactive

---

- Protocol description: qHTS profiling for inhibitors of Plasmodium falciparum proliferation (AID 504749);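 also: 0% = DMSO vehicle and full inhibition = artemisinin control; nearly all actives have a fitted effect of over 60% in size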
- Details: P. falciparum in erythrocytes, SYBR Green DNA, 72 h; at 28.7 µM (top of the series); parasite line B
Inconclusive results are not listed.
Quantity measured: activity, negative = inhibition (%)
Give bare numbers, in %.

The following compounds have reported results that may help.
| Compound | activity, negative = inhibition / % |
| --- | --- |
| CC(C)(C)NCC(O)COc1ccc(NC(=O)NC2CCCCC2)cc1 (configuration not stated) | 2.44 |
| CC[C@@]1(c2ccccc2)NC(=O)N(C)C1=O | 13.3 |
| CCCc1c(OCCCCc2nn[nH]n2)ccc(C(C)=O)c1O | -24.5 |

Working through the 3 compounds below one at a time, give activity, negative = inhibition for each.
1. CC1=C(CC(=O)O)c2cc(F)ccc2/C1=C\c1ccc(S(C)=O)cc1 (configuration not stated)
2. CCCCOC(=O)c1ccc(O)cc1
3. Cc1cccc(C)c1NC(=O)CN(CC(=O)O)CC(=O)O

## Output
1: -4.38; 2: 8.94; 3: 2.17

activity, negative = inhibition reported for this compound "COc1ccccc1O" : 17.1

---

- Protocol description: qHTS of pediatric cancer cell lines to identify multiple opportunities for drug repurposing: Primary screen for SK-N-SH cells (AID 1347098); also: nearly all actives have a fitted effect of over 65% in size
- Details: SK-N-SH viability, CellTiter-Glo luminescence, 48 h; series mostly up to 57 µM
Records with an inconclusive call do not appear. Active and inactive are the calls of the source. Calls come from the whole dose curve; as a rule, active = well fitted cell-killing curve with a large enough effect; inconclusive = small, poorly fitted or top-dose-only effect; inactive = no such curve, though single readings can be large or run the other way.
Select the matching outcome among 1 (yes) for active, 0 (no) for inactive

| Compound | Assigned label |
| --- | --- |
| OCC(O)CN1CCN(c2ccccc2)CC1 (configuration not stated) | 0 (no) |
| CN1[C@@H]2CC[C@H]1CC(OC(=O)C(O)c1ccccc1)C2 (some centres not stated) | 0 (no) |
| Oc1cn2c(n1)Nc1ccc(Cl)c(Cl)c1C2 | 0 (no) |
| O=C(O)COc1nn(Cc2ccccc2)c2ccccc12 | 0 (no) |
| CC(=O)OCC(=O)[C@@]1(O)CC[C@H]2[C@@H]3CCC4=CC(=O)CC[C@]4(C)[C@H]3C(=O)C[C@@]21C | 0 (no) |

## Input Assay result, entry "NS(=O)(=O)c1cc2c(cc1Cl)NC(CSCc1ccccc1)=NS2(=O)=O" — outcome?
## Output 0 (no)

## Input Assay result, entry "Nc1ccc(S(=O)(=O)Nc2nccs2)cc1" — outcome?
## Output 0 (no)

## Input Assay result, entry "C=CCn1c(=O)n([C@@H]2O[C@H](CO)[C@@H](O)[C@H]2O)c2nc(N)[nH]c(=O)c21" — outcome?
## Output 0 (no)

## Input Assay result, entry "Cn1cc[nH]c1=S" — outcome?
## Output 0 (no)

## Input Assay result, entry "C#CCN(C)Cc1ccccc1" — outcome?
## Output 0 (no)

## Input Assay result, entry "CN(C)CCCN1c2ccccc2Sc2ccc(Cl)cc21" — outcome?
## Output 1 (yes)

## Input Assay result, entry "NCC(=O)CCC(=O)O" — outcome?
## Output 0 (no)
